- System: rats
- experimentSummary: Antipyretic activity, E. coli suspension as pyrogen
- Type: in vivo
- statedConditions: 25 mg/kg transdermally; in °C (unit assumed)
- Experimental: Rats are administered with sterilized E. coli suspension as a pyrogen. Each group of rats are administered with a prodrug compounds or parent compounds at a dosage specified below. The prodrug compounds are administered either orally or transdermally. The parent compounds are administered orally.
# reported body temperature, t = 90 min; entries follow
Hey, just send me the number, nothing else.

Observe how each entry below is paired with its result.
Per the record, CN(C)CCCC(=O)OC1=C(C(=O)Nc2ccccn2)N(C)S(=O)(=O)c2ccsc21.Cl has body temperature, t = 90 min of 36.61

Per the record, Cc1cnc(NC(=O)C2=C(OC(=O)CCCN(C)C)c3ccccc3S(=O)(=O)N2C)s1.Cl has body temperature, t = 90 min of 36.53

Memo: CN(C)CCCC(=O)OC1=C(C(=O)Nc2ccccn2)N(C)S(=O)(=O)c2cc(Cl)sc21.Cl , reported body temperature, t = 90 min: 36.66

Next:
The compound listed as CN(C)CCCC(=O)OC1=C(C(=O)Nc2ccccn2)N(C)S(=O)(=O)c2ccccc21.Cl has a reported body temperature, t = 90 min of 36.51

###

- Tested on: rats
- experimentSummary: Antipyretic activity, E. coli suspension as pyrogen
- Type: in vivo
- statedConditions: 150 mg/kg orally; in °C (unit assumed)
observedProperty: body temperature, t = 90 min
Format: numeric value only, no unit, no commentary.

get_value(item= CCN(CC)CCOC(=O)c1ccccc1OC(C)=O [diethylaminoethyl acetylsalicylate.AcOH] , readout=body temperature, t = 90 min) returns 36.30

Form field body temperature, t = 90 min, entry CC(=O)O.CCN(CC)CCOC(=O)C(C)c1ccc(CC(C)C)cc1 (centres unmarked) : 36.30

Lookup result for CC(C)Cc1ccc(C(C)C(=O)O)cc1 (centres unmarked) [Ibuprofen, 2-(ρ-isobutylphenyl) propionic acid, reference compound] ; measured body temperature, t = 90 min: 36.59

Entry under test: CC(=O)Oc1ccccc1C(=O)O [Aspirin, acetylsalicylic acid, reference compound] . Its body temperature, t = 90 min was 36.50

Entry O=C(O)c1cc(-c2ccc(F)cc2F)ccc1O [Diflunisal, 5-(2,4-difluorophenyl) salicylic acid, reference compound] ; body temperature, t = 90 min = 36.61

###

- Tested on: Human breast cancer cells (BCAP-37)
- experimentSummary: Human breast cancer xenograft in nude mice, topical
- statedConditions: day 42; 30 μl of 5% (1.5 mg) topically every 8 hours from day 14; control 800 ± 100
Think of 200 mm^3 as a floor: if Tumor size stands on it or above, it is class 1; beneath it, class 0.

Solved cases (2 shown):
Lookup: Identify whether the reported Tumor size of the following molecule is 200 mm^3 or greater: CC(=O)O.O=C(OCCCN1CCCC1)c1ccccc1Nc1cccc(C(F)(F)F)c1
Found: class 1

Lookup: Say whether CN(C)CCCC(=O)OC1=C(C(=O)Nc2ccccn2)N(C)S(=O)(=O)c2ccccc21.Cl shows Tumor size of 200 mm^3 or more.
Found: class 1

New cases:
Lookup: # check: Tumor size of CC(=O)O.CCN(CC)CCOC(=O)Cc1ccccc1Oc1ccc(Cl)cc1Cl is greater than or equal to 200 mm^3
Found: class 1

Lookup: Hi team, for CC(=O)O.CC1=C(CC(=O)OCCN2CCOCC2)c2cc(F)ccc2/C1=C\c1ccc([S+](C)[O-])cc1 (centres unmarked) , is the recorded Tumor size at or above 200 mm^3?
Found: class 1

Lookup: API: above_or_equal(metric=Tumor size, cutoff=200 mm^3) for item CC(=O)O.O=C(Cc1ccccc1Nc1c(Cl)cccc1Cl)OCCCN1CCCCC1
Found: class 0

Lookup: Answer whether Tumor size of CC(=O)Oc1ccccc1C(=O)O.CCN(CC)CCOC(=O)c1ccccc1OC(C)=O is greater than or equal to 200 mm^3.
Found: class 0

Lookup: Item CC(=O)O.CCN(CC)CCOC(=O)C(C)c1ccc2c(c1)C(=O)Cc1cc(C)ccc1O2 (centres unmarked) with Tumor size of 200 mm^3 or above?
Found: class 1

Lookup: Please check the record CC(=O)O.CC(C)Cc1ccc(C(C)C(=O)OCC2CCCNC2)cc1 (centres unmarked) and state if its Tumor size is at or above 200 mm^3.
Found: class 0

Lookup: Determine whether this molecule has Tumor size no lower than 200 mm^3: CC(=O)O.CC(C(=O)OCC1CCNCC1)c1cccc(Oc2ccccc2)c1 (centres unmarked)
Found: class 0

Lookup: Reported Tumor size at or above 200 mm^3? CC(=O)O.CCN(CC)CCOC(=O)Cc1c(C)n(C(=O)c2ccc(Cl)cc2)c2ccc(OC)cc12
Found: class 1

###

- System: mice
- experimentSummary: Analgesic activity, acetic acid writhing
- Format: in vivo
- statedConditions: Mus musculus, po; 50 mg/kg orally, 30 min before acetic acid; read-out: % (rate of writhing inhibition)
- Method: The prodrug compounds are administered either transdermally or orally. The parent compounds are administered orally. The number of writhing that occurred when mice are administered the acetic acid solution are counted, and the rate of inhibition based on the control group which was not pretreated with any test compounds is calculated. […] The A group is the control group.
observedProperty: inhibition at 50 mg/kg (%)
Kindly provide the numeric value in % only, without the unit symbol.

Before answering, review these 3 worked examples.
Please fill in: inhibition at 50 mg/kg reported for CC(C(=O)O)c1cccc(C(=O)c2ccccc2)c1 (centres unmarked) [Ketoprofen, 2-(3-benzoylphenyl) propionic acid, reference compound] = 48

The recorded inhibition at 50 mg/kg for CC(C(=O)O)c1cccc(Oc2ccccc2)c1 (centres unmarked) [Fenoprofen, 2-(3-phenoxyphenyl) propionic acid, reference compound] is 62

For CC(C)Cc1ccc(C(C)C(=O)O)cc1 (centres unmarked) [Ibuprofen, 2-(ρ-isobutylphenyl) propionic acid, reference compound] the molecule record lists inhibition at 50 mg/kg as 50

Others:
Record summary for O=C(O)c1cc(-c2ccc(F)cc2F)ccc1O [Diflunisal, 5-(2,4-difluorophenyl) salicylic acid, reference compound] : reported inhibition at 50 mg/kg = 48

get_value(item= CC(=O)Oc1ccccc1C(=O)O [Aspirin, acetylsalicylic acid, reference compound] , readout=inhibition at 50 mg/kg) returns 45

###

Measured No. of Writhing accompanies every entry in the list below.
- Test system: mice
- experimentSummary: Analgesic activity, acetic acid writhing
- Assay type: in vivo
- statedConditions: 100 mg/kg orally, 30 min before acetic acid
Give your answer as a number; write no unit.

Would you please look over these solved cases?
Note to self: No. of Writhing recorded for CC(C)Cc1ccc(C(C)C(=O)O)cc1 (centres unmarked) [Ibuprofen, 2-(ρ-isobutylphenyl) propionic acid, reference compound] was 13.1

// recorded No. of Writhing for O=C(O)c1cc(-c2ccc(F)cc2F)ccc1O [Diflunisal, 5-(2,4-difluorophenyl) salicylic acid, reference compound] : 13.2

Please fill in: No. of Writhing reported for CC(=O)Oc1ccccc1C(=O)O [Aspirin, acetylsalicylic acid, reference compound] = 13.2

No. of Writhing measured on CC(=O)O.CCN(CC)CCOC(=O)C(C)c1ccc(CC(C)C)cc1 (centres unmarked) = 10.2

Now look at this entry.
For reference, reported No. of Writhing for CCN(CC)CCOC(=O)c1ccccc1OC(C)=O [diethylaminoethyl acetylsalicylate.AcOH] stands at 11.0

###

- System: human skin tissue
- statedConditions: pH 7.4
observedProperty: In vitro penetration rate (apparent flux), prodrug compounds (μg/cm^2/h)
Could you give me the number in μg/cm^2/h? Just the number is fine.

Value of In vitro penetration rate (apparent flux), prodrug compounds reported for the molecule CCN(CC)CCOC(=O)c1ccccc1OC(C)=O [diethylaminoethyl acetylsalicylate.AcOH] is 1000

Form field In vitro penetration rate (apparent flux), prodrug compounds, entry CC(=O)O.CCN(CC)CCOC(=O)c1cc(-c2ccc(F)cc2F)ccc1O : 100

CC(=O)O.CCN(CC)CCOC(=O)c1ccccc1O [diethylaminoethyl salicylate.AcOH] has a reported In vitro penetration rate (apparent flux), prodrug compounds of 60

Summary for this molecule, CC(=O)O.CCN(CC)CCOC(=O)C(C)c1ccc2c(c1)C(=O)Cc1cc(C)ccc1O2 (stereo not drawn) : In vitro penetration rate (apparent flux), prodrug compounds is 4100

For reference, reported In vitro penetration rate (apparent flux), prodrug compounds for CC(=O)O.CCN(CC)CCOC(=O)c1ccccc1OC(=O)c1ccccc1O [diethylaminoethyl salicylsalicylate.AcOH] stands at 80

Could you now consider this next molecule?
# molecule C=C(C)CNc1ccc(C(C)C(=O)OCCN(CC)CC)cc1.CC(=O)O (stereo not drawn) ; its In vitro penetration rate (apparent flux), prodrug compounds = 3500

###

- experimentSummary: Plasma levels after transdermal administration to hairless mice
- Format: in vivo
- statedConditions: parent compound administered (time when taken orally)
observedProperty: t, time to peak plasma level after parent compound

Below: 5 compounds and their reported t, time to peak plasma level after parent compound.
Lookup result for O=C(O)Cc1sc(-c2ccccc2)nc1-c1ccc(Cl)cc1 [Fentiazac, fentiazac, reference compound] ; measured t, time to peak plasma level after parent compound: 1 to 2 h

Reported t, time to peak plasma level after parent compound ( O=C(O)Cc1ccccc1Oc1ccc(Cl)cc1Cl ) = 1 to 2 h

Recorded t, time to peak plasma level after parent compound (compound O=C(O)Cc1cn(-c2ccccc2)nc1-c1ccc(Cl)cc1 [Lonazolac, lonazolac, reference compound] ): 1 to 2 h

Note to self: t, time to peak plasma level after parent compound recorded for Cc1cc(CC(=O)O)n(C)c1C(=O)c1ccc(Cl)cc1 [Zomepirac, zomepirac] was 1 to 2 h

Field t, time to peak plasma level after parent compound (entry CN1C(C(=O)Nc2ccccn2)=C(O)c2sccc2S1(=O)=O [Tenoxicam, tenoxicam, reference compound] ) reads 2 to 4 h

More entries:
Reported t, time to peak plasma level after parent compound ( COc1ccc2c(c1)c(CC(=O)O)c(C)n2C(=O)c1ccc(Cl)cc1 ) = 1 to 2 h

Per the records, this compound ( O=C(O)C1CCc2cc(C3CCCCC3)c(Cl)cc21 (centres unmarked) ) has t, time to peak plasma level after parent compound equal to 2 to 4 h

For this compound ( CC(C(=O)O)c1ccc2c(c1)Cc1cccnc1O2 (centres unmarked) ), measured t, time to peak plasma level after parent compound is 2 to 4 h

Given item Nc1c(CC(=O)O)cccc1C(=O)c1ccccc1 , the value recorded as its t, time to peak plasma level after parent compound is 1 to 2 h

So for CC(C(=O)O)c1cccc(C(=O)c2ccccc2)c1 (centres unmarked) [Ketoprofen, 2-(3-benzoylphenyl) propionic acid, reference compound] , the logged t, time to peak plasma level after parent compound turned out to be 1 to 2 h

Record O=C(O)c1cc(-c2ccc(F)cc2F)ccc1O [Diflunisal, 5-(2,4-difluorophenyl) salicylic acid, reference compound] . Reported t, time to peak plasma level after parent compound: 1 to 2 h

Recorded result, C=CCOc1ccc(CC(=O)O)cc1Cl [Alclofenac, alclofenac, reference compound] , t, time to peak plasma level after parent compound: 1 to 2 h

Sure, the documented t, time to peak plasma level after parent compound for CC(C(=O)O)c1ccc(C(=O)c2cccs2)cc1 (centres unmarked) [Suprofen, suprofen, reference compound] is 2 to 4 h

Entry CC1=C(CC(=O)O)c2cc(F)ccc2/C1=C\c1ccc([S+](C)[O-])cc1 (centres unmarked) [Sulindac, sulindac, reference compound] , t, time to peak plasma level after parent compound reported as 1 to 2 h

Entry source: patent US20210353579A1
